- Target Or Test System: KRAS G12V (Homo sapiens, UniProt P01116, G12V)
- Sequence (P01116 with tags, fused parts or gaps isoform P01116-2 G12V): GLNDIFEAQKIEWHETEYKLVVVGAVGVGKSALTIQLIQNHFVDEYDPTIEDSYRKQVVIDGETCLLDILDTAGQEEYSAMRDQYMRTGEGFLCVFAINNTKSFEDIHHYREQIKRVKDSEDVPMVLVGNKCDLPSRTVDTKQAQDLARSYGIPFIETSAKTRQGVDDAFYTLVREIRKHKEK
- Assay Info: SOS-catalyzed nucleotide exchange assay, KRAS G12V (Procedure A)
- Assay type: biochemical
- Assay Context: GNE
pIC50: −log10 of the molar value.

| Compound | pIC50 |
| --- | --- |
| F[C@H]1CN2CCC[C@@]2(COc2nc(N3C[C@H]4CC[C@@H](C3)N4)c3c(n2)sc2c(-c4c5cn[nH]c5cc5cccc(Cl)c45)nccc23)C1 [Ex-58] | 5.59 |
| Cc1cc2[nH]ncc2c(-c2nccc3c4c(N5C[C@H]6CC[C@@H](C5)N6)nc(OC[C@]5(CO)CC5(F)F)nc4n(C)c23)c1C(F)(F)F [Ex-53] | < 4.95 |
| CC12CC(COc3nc(N4C[C@H]5CC[C@@H](C4)N5)c4c(n3)sc3c(-c5c(C6CC6)c(Cl)cc6[nH]ncc56)nccc34)(CO1)C2 [Ex-23] | < 4.95 |

###

- Target Or Test System: KRAS WT (Homo sapiens, UniProt P01116)
- Sequence (P01116 with tags, fused parts or gaps isoform P01116-2): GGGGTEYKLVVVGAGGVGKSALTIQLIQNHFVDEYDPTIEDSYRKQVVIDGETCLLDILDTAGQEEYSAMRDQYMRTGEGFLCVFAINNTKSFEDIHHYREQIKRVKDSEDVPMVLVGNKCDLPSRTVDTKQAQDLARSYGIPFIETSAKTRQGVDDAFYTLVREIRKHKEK
- Assay Info: SOS-catalyzed nucleotide exchange assay, KRAS WT (Procedure A)
- Assay type: biochemical
- Assay Context: GNE
pIC50: −log10 of the molar value.
A collection of molecules and their measured pIC50
Quantity Measured: pIC50

| Molecule | Comparator | Obs Value |
| --- | --- | --- |
| Cc1cc2[nH]ncc2c(-c2nccc3c2sc2nc(OCC4(C)CNC(=O)C4)nc(N4C[C@H]5CC[C@@H](C4)N5)c23)c1C(F)(F)F (stereo partly drawn) | < | 4.95 |
| Fc1ccc2cc3[nH]ncc3c(-c3nccc4c3C3(CC3)c3nc(OC[C@@]56CCCN5C[C@H](F)C6)nc(N5C[C@H]6CC[C@@H](C5)N6)c3-4)c2c1Cl (single isomer, unassigned) | = | 6.43 |
| F[C@H]1CN2CCC[C@@]2(COc2nc(N3C[C@H]4CC[C@@H](C3)N4)c3c(n2)sc2c(-c4c(C5CC5)c(C(F)(F)F)cc5[nH]ncc45)nccc23)C1 | = | 6.15 |
| Cc1cc2[nH]ncc2c(-c2nccc3c2sc2nc(OC[C@@]45CCCN4C[C@H](F)C5)nc(N4CC5COCC(C4)N5)c23)c1C(F)(F)F | = | 5.06 |
| Cc1cc2[nH]ncc2c(-c2nccc3c2sc2nc(OCC4(C#N)CCOCC4)nc(N4C[C@H]5CC[C@@H](C4)N5)c23)c1C(F)(F)F | < | 4.95 |
| Cc1cc2[nH]ncc2c(-c2nccc3c2sc2nc(OC[C@@]45CCCN4C[C@H](F)C5)nc(N4CC5CC(C4)N5)c23)c1C(F)(F)F | = | 6.07 |

###

- Target Or Test System: KRAS G12V (Homo sapiens, UniProt P01116, G12V)
- Assay Info: SOS-catalyzed nucleotide exchange assay, KRAS G12V (Procedure A)
- Format: biochemical
- Assay Context: GNE
- Description: Procedure for SOS-Catalyzed Nucleotide Exchange Assay for KRAS-WT, G12C/D/V, G13D, HRAS, and NRAS (Procedure A) Recombinant KRAS-G12C protein used in this assay has an additional triple mutation (C51S/C80L/C118S). […] The time-resolved fluorescence resonance energy transfer (TR-FRET) signal is measured on an Envision (PerkinElmer) plate reader: Excitation filter=340 nm; emission1=495 nm; emission2=520 nm; dichroic mirror=D400/D505; delay time=100 ms. […]
Quantity Measured: IC50

| Compound | Quantity Measured | Obs Value |
| --- | --- | --- |
| C#Cc1c(F)ccc2cc3[nH]ncc3c(-c3nccc4c3sc3nc(OCC5(CN(C)C)COC5)nc(N5C[C@H]6CC[C@@H](C5)N6)c34)c12 | IC50 | 6.76 µM |
| Cc1cc2[nH]nc(C#N)c2c(-c2nccc3c2sc2nc(OC[C@@]45CCCN4C[C@H](F)C5)nc(N4C[C@H]5CC[C@@H](C4)N5)c23)c1C(F)(F)F | IC50 | > 11.1 µM |
| Cc1cc2[nH]ncc2c(-c2nccc3c2sc2nc(OC[C@@]45CCCN4C[C@H](F)C5)nc(N4C[C@@H]5CC[C@H]4CN5)c23)c1C(F)(F)F | IC50 | > 11.1 µM |
| C#Cc1csc2cc3[nH]ncc3c(-c3nccc4c3sc3nc(OC[C@@]56CCCN5C/C(=C\F)C6)nc(N5C[C@H]6CC[C@@H](C5)N6)c34)c12 | IC50 | 0.0282 µM |
| Cc1cc2[nH]ncc2c(-c2nccc3c4c(N5C[C@H]6CC[C@@H](C5)N6)nc(OC[C@@]56CCCN5C[C@H](F)C6)nc4n(C)c23)c1C(F)(F)F (single isomer, unassigned) | IC50 | 3.56 µM |
| C#Cc1c(F)ccc2cc(O)cc(-c3nccc4c5c(N6C[C@H]7CC[C@@H](C6)N7)nc(OC[C@@]67CCCN6C[C@H](F)C7)nc5n(C)c34)c12 | IC50 | 0.0626 µM |

###

- Target Or Test System: KRAS G12D (Homo sapiens, UniProt P01116, G12D)
- Sequence (P01116 with tags, fused parts or gaps isoform P01116-2 G12D): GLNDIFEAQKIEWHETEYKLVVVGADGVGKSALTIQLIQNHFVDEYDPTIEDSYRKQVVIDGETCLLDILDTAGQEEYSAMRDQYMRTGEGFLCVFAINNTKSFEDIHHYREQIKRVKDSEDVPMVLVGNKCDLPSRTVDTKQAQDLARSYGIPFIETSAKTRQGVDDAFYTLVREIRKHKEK
- Assay Info: SOS-catalyzed nucleotide exchange assay, KRAS G12D (Procedure A)
- Format: biochemical
- Assay Context: guanine nucleotide exchange (GNE)
Quantity Measured: log10 of IC50 (log10 of the value in nM)

| Compound | log10 of IC50 |
| --- | --- |
| Cc1cc2[nH]ncc2c(-c2nccc3c2sc2nc(OCC4COC(C)(C)CO4)nc(N4C[C@H]5CC[C@@H](C4)N5)c23)c1C(F)(F)F (stereo partly drawn) | 3.53 |
| Cc1cc2[nH]ncc2c(-c2nccc3c2sc2nc(OCC4CS(=O)(=O)C4)nc(N4C[C@H]5CC[C@@H](C4)N5)c23)c1C(F)(F)F | 3.56 |
| C#Cc1c(F)ccc2cc3[nH]ncc3c(-c3nccc4c3sc3nc(OC[C@]5(CN6CC7(CC(F)C7)C6)CC5(F)F)nc(N5C[C@H]6CC[C@@H](C5)N6)c34)c12 | 0.18 |
| C#Cc1c(F)ccc2cc3[nH]ncc3c(-c3nccc4c3sc3nc(OCC56CCCN5CC(=C(F)F)C6)nc(N5C[C@H]6CC[C@@H](C5)N6)c34)c12 (stereo partly drawn) | 0.06 |
| C#Cc1cccc2cc3[nH]ncc3c(-c3nccc4c3sc3nc(OC[C@@]56CCCN5C[C@H](F)C6)nc(N5C[C@H]6CC[C@@H](C5)N6)c34)c12 | 0.12 |
| Cc1cc2[nH]ncc2c(-c2nccc3c2sc2nc(OC[C@@]45CCCN4C[C@H](F)C5)nc(N4[C@@H]5CC[C@H]4CN(CC(C)O)C5)c23)c1C(F)(F)F (stereo partly drawn) | 3.83 |
| Cc1cc2[nH]ncc2c(-c2nccc3c2sc2nc(OC[C@]4(C#N)C[C@H]4S(C)(=O)=O)nc(N4C[C@H]5CC[C@@H](C4)N5)c23)c1C(F)(F)F | 3.01 |
| Cc1cc2[nH]ncc2c(-c2nccc3c2sc2nc(OC[C@@]45CCCN4C[C@H](F)C5)nc(N4C[C@H]5CC[C@@](C)(C4)N5)c23)c1C(F)(F)F | 1.42 |
| Cc1cc2[nH]ncc2c(-c2nccc3c2sc2nc(OC[C@H]4C[C@H](S(C)(=O)=O)C4)nc(N4C[C@H]5CC[C@@H](C4)N5)c23)c1C(F)(F)F | 3.39 |
| Cn1c2nc(OC[C@]3(CO)CC3(F)F)nc(N3C[C@H]4CC[C@@H](C3)N4)c2c2ccnc(-c3ccc(F)c4sc(N)c(C#N)c34)c21 | 2.81 |
| CN(C)C[C@@]1(COc2nc(N3C[C@H]4CC[C@@H](C3)N4)c3c(n2)sc2c(-c4c(C5CC5)c(Cl)cc5[nH]ncc45)nccc23)CC1(F)F | 0.90 |
| C#Cc1csc2cc3[nH]ncc3c(-c3nccc4c3sc3nc(OCC5(C#N)CCOCC5)nc(N5C[C@H]6CC[C@@H](C5)N6)c34)c12 | 2.05 |

###

- Target Or Test System: KRAS G12D (Homo sapiens, UniProt P01116, G12D)
- Assay Info: SOS-catalyzed nucleotide exchange assay, KRAS G12D (Procedure A)
- Type: biochemical
- Assay Context: guanine nucleotide exchange (GNE)
- Method: Procedure for SOS-Catalyzed Nucleotide Exchange Assay for KRAS-WT, G12C/D/V, G13D, HRAS, and NRAS (Procedure A) Recombinant KRAS-G12C protein used in this assay has an additional triple mutation (C51S/C80L/C118S). […] The time-resolved fluorescence resonance energy transfer (TR-FRET) signal is measured on an Envision (PerkinElmer) plate reader: Excitation filter=340 nm; emission1=495 nm; emission2=520 nm; dichroic mirror=D400/D505; delay time=100 ms. […]
Quantity Measured: IC50 (nM)

| Molecule | Quantity Measured | Obs Value |
| --- | --- | --- |
| Nc1nc2c(-c3nccc4c3sc3nc(OC[C@@]56CCCN5C[C@H](F)C6)nc(N5C[C@H]6CC[C@@H](C5)N6)c34)c(F)cc(F)c2o1 | IC50 | 4990 |
| Cc1cc2[nH]ncc2c(-c2nccc3c2sc2nc(OC[C@@]45CCCN4C[C@H](F)C5)nc(N4CCC5CCC(C4)N5)c23)c1C(F)(F)F (stereo partly drawn) | IC50 | 5300 |
| Fc1ccc2cc3[nH]ncc3c(-c3nccc4c3sc3nc(OC[C@@]56CCCN5C[C@H](F)C6)nc(N5C[C@H]6CC[C@@H](C5)N6)c34)c2c1 | IC50 | 23.6 |
| COC1(COc2nc(N3C[C@H]4CC[C@@H](C3)N4)c3c(n2)sc2c(-c4c(C(F)(F)F)c(C)cc5[nH]ncc45)nccc23)CC1 | IC50 | 3200 |
| C#Cc1c(F)ccc2cc3[nH]ncc3c(-c3nccc4c3sc3nc(OC[C@]5(CN6CCN(CC(F)(F)F)CC6)CC5(F)F)nc(N5C[C@H]6CC[C@@H](C5)N6)c34)c12 | IC50 | 33.1 |
| C#Cc1c(F)ccc2cc3[nH]ncc3c(-c3nccc4c3sc3nc(OC[C@@]56CCCN5C/C(=C\F)C6)nc(N5C[C@@H]6C[C@H](O)[C@H](C5)N6)c34)c12 | IC50 | 1.81 |
| CCc1c(F)ccc2cc3[nH]ncc3c(-c3nccc4c3sc3nc(OC[C@@]56CCCN5C[C@H](F)C6)nc(N5C[C@H]6CC[C@@H](C5)N6)c34)c12 | IC50 | 3.58 |
| C#Cc1c(F)sc2cc3[nH]ncc3c(-c3nccc4c3sc3nc(OC[C@@]56CCCN5C[C@H](F)C6)nc(N5C[C@H]6CC[C@@H](C5)N6)c34)c12 | IC50 | 1.93 |
| Cc1cc2[nH]nc(C#N)c2c(-c2nccc3c4c(N5C[C@H]6CC[C@@H](C5)N6)nc(OC[C@@]56CCCN5C[C@H](F)C6)nc4n(C)c23)c1C(F)(F)F (single isomer, unassigned) | IC50 | 43.6 |
| C#Cc1csc2cc3[nH]ncc3c(-c3nccc4c3sc3nc(OC[C@]5(CN6CC7(C6)CC(F)(F)C7)CC5(F)F)nc(N5C[C@H]6CC[C@@H](C5)N6)c34)c12 | IC50 | 1.43 |
| Cc1cc2[nH]ncc2c(-c2nccc3c2sc2nc(OCC45COC(CF)(C4)C5)nc(N4C[C@H]5CC[C@@H](C4)N5)c23)c1C(F)(F)F | IC50 | 3340 |
| C#Cc1c(F)ccc2cc3[nH]ncc3c(-c3nccc4c3sc3nc(OCC5(CN(C)C)COC5)nc(N5C[C@H]6CC[C@@H](C5)N6)c34)c12 | IC50 | 5.29 |
